Entries and their activity coefficient
Test: activity coefficient (dimensionless); of the first substance listed, at infinite dilution; xn = mol fraction of the nth substance listed
Conditions: 333.3 K; 101 kPa; Liquid; Chromatography; x1 = 0
endpoint label: activity coefficient

Cc1ccccc1C [1,2-dimethylbenzene] + CCCC[n+]1ccccc1.O=S(=O)([N-]S(=O)(=O)C(F)(F)F)C(F)(F)F :: 2.28
CCCCCCCC [octane] + CCCC[n+]1ccccc1.O=S(=O)([N-]S(=O)(=O)C(F)(F)F)C(F)(F)F :: 23.9
C#CCCCCC [1-heptyne] + CCCCC[n+]1ccccc1.O=S(=O)([N-]S(=O)(=O)C(F)(F)F)C(F)(F)F :: 3.74
CCCO [propan-1-ol] + CCCCC[n+]1ccccc1.O=S(=O)([N-]S(=O)(=O)C(F)(F)F)C(F)(F)F :: 1.84
C1CCCCC1 [cyclohexane] + CCCCC[n+]1ccccc1.O=S(=O)([N-]S(=O)(=O)C(F)(F)F)C(F)(F)F :: 5.3
CCO [ethanol] + CCCCC[n+]1ccccc1.O=S(=O)([N-]S(=O)(=O)C(F)(F)F)C(F)(F)F :: 1.5
CCCCCCCCC [nonane] + CCCC[n+]1ccccc1.O=S(=O)([N-]S(=O)(=O)C(F)(F)F)C(F)(F)F :: 38.6
CCCCCCCC [octane] + CCCCC[n+]1ccccc1.O=S(=O)([N-]S(=O)(=O)C(F)(F)F)C(F)(F)F :: 18
CCCCC [pentane] + CCCCC[n+]1ccccc1.O=S(=O)([N-]S(=O)(=O)C(F)(F)F)C(F)(F)F :: 2.89
C#CCCCCCC [1-octyne] + CCCCC[n+]1ccccc1.O=S(=O)([N-]S(=O)(=O)C(F)(F)F)C(F)(F)F :: 5.22
Cc1cccc(C)c1 [1,3-dimethylbenzene] + CCCC[n+]1ccccc1.O=S(=O)([N-]S(=O)(=O)C(F)(F)F)C(F)(F)F :: 2.51
CCCCCCCCC [nonane] + CCCCC[n+]1ccccc1.O=S(=O)([N-]S(=O)(=O)C(F)(F)F)C(F)(F)F :: 27.3
CCCCCC [hexane] + CCCCC[n+]1ccccc1.O=S(=O)([N-]S(=O)(=O)C(F)(F)F)C(F)(F)F :: 5.98
CC1CCCCC1 [methylcyclohexane] + CCCCC[n+]1ccccc1.O=S(=O)([N-]S(=O)(=O)C(F)(F)F)C(F)(F)F :: 7.64
Cc1ccccc1 [toluene] + CCCCC[n+]1ccccc1.O=S(=O)([N-]S(=O)(=O)C(F)(F)F)C(F)(F)F :: 1.34
C#CCCCC [1-hexyne] + CCCCC[n+]1ccccc1.O=S(=O)([N-]S(=O)(=O)C(F)(F)F)C(F)(F)F :: 2.53
C#CCCC [1-pentyne] + CCCCC[n+]1ccccc1.O=S(=O)([N-]S(=O)(=O)C(F)(F)F)C(F)(F)F :: 1.62
CO [methanol] + CCCCC[n+]1ccccc1.O=S(=O)([N-]S(=O)(=O)C(F)(F)F)C(F)(F)F :: 1.18
CCCCCCC [heptane] + CCCCC[n+]1ccccc1.O=S(=O)([N-]S(=O)(=O)C(F)(F)F)C(F)(F)F :: 11
Cc1ccc(C)cc1 [1,4-dimethylbenzene] + CCCC[n+]1ccccc1.O=S(=O)([N-]S(=O)(=O)C(F)(F)F)C(F)(F)F :: 2.52

====

Entries and their activity coefficient
Experiment: activity coefficient (dimensionless); of the first substance listed, at infinite dilution; xn = mol fraction of the nth substance listed
Conditions: 302.6 K; 101 kPa; Liquid; Chromatography; x1 = 0
endpoint label: activity coefficient

Cc1ccc(C)cc1 [1,4-dimethylbenzene] + CC[n+]1ccccc1.O=S(=O)([N-]S(=O)(=O)C(F)(F)F)C(F)(F)F :: 3.04
C=CCCCCCC [oct-1-ene] + CC[n+]1ccccc1.O=S(=O)([N-]S(=O)(=O)C(F)(F)F)C(F)(F)F :: 36.6
C#CCCCCCC [1-octyne] + CCCC[n+]1ccccc1.O=S(=O)([N-]S(=O)(=O)C(F)(F)F)C(F)(F)F :: 8.1
C=CCCCC [hex-1-ene] + CC[n+]1ccccc1.O=S(=O)([N-]S(=O)(=O)C(F)(F)F)C(F)(F)F :: 11.5
c1ccccc1 [benzene] + CC[n+]1ccccc1.O=S(=O)([N-]S(=O)(=O)C(F)(F)F)C(F)(F)F :: 1.5

====

Assay: activity coefficient (dimensionless); of the first substance listed, at infinite dilution; xn = mol fraction of the nth substance listed
Settings: 343.4 K; 101 kPa; Liquid; Chromatography; x1 = 0
Values of activity coefficient strictly less than 10 map to y, and values of at least 10 map to n.

CCCCC [pentane] + CCCC[n+]1ccccc1.O=S(=O)([N-]S(=O)(=O)C(F)(F)F)C(F)(F)F :: y
C=CCCCCCCCC [1-decene] + CCCCC[n+]1ccccc1.O=S(=O)([N-]S(=O)(=O)C(F)(F)F)C(F)(F)F :: n
C=CCCCC [hex-1-ene] + CCCCC[n+]1ccccc1.O=S(=O)([N-]S(=O)(=O)C(F)(F)F)C(F)(F)F :: y
C#CCCCCCC [1-octyne] + CCCCC[n+]1ccccc1.O=S(=O)([N-]S(=O)(=O)C(F)(F)F)C(F)(F)F :: y

====

Experiment: activity coefficient (dimensionless); of the first substance listed, at infinite dilution; xn = mol fraction of the nth substance listed
Conditions: 353 K; 101 kPa; Liquid; Chromatography; x1 = 0
endpoint label: activity coefficient

C1CCCCC1 [cyclohexane] + CC[n+]1ccccc1.O=S(=O)([N-]S(=O)(=O)C(F)(F)F)C(F)(F)F :: 4.65
CCCO [propan-1-ol] + CCCC[n+]1ccccc1.O=S(=O)([N-]S(=O)(=O)C(F)(F)F)C(F)(F)F :: 1.84
C#CCCCCCC [1-octyne] + CC[n+]1ccccc1.O=S(=O)([N-]S(=O)(=O)C(F)(F)F)C(F)(F)F :: 9.74
CCCCCCCCC [nonane] + CC[n+]1ccccc1.O=S(=O)([N-]S(=O)(=O)C(F)(F)F)C(F)(F)F :: 33.8

====

Assay: activity coefficient (dimensionless); of the first substance listed, at infinite dilution; xn = mol fraction of the nth substance listed
Details: 312.4 K; 101 kPa; Liquid; Chromatography; x1 = 0
Entries and their activity coefficient
endpoint label: activity coefficient

CCCCCCC [heptane] + CCCC[n+]1ccccc1.O=S(=O)([N-]S(=O)(=O)C(F)(F)F)C(F)(F)F :: 19.4
C1CCCCC1 [cyclohexane] + CCCC[n+]1ccccc1.O=S(=O)([N-]S(=O)(=O)C(F)(F)F)C(F)(F)F :: 8.64
CC1CCCCC1 [methylcyclohexane] + CCCC[n+]1ccccc1.O=S(=O)([N-]S(=O)(=O)C(F)(F)F)C(F)(F)F :: 12.7
CCCCCC [hexane] + CCCC[n+]1ccccc1.O=S(=O)([N-]S(=O)(=O)C(F)(F)F)C(F)(F)F :: 10.4
CCCCC [pentane] + CCCC[n+]1ccccc1.O=S(=O)([N-]S(=O)(=O)C(F)(F)F)C(F)(F)F :: 4.83

====

Assay: activity coefficient (dimensionless); of the first substance listed, at infinite dilution; xn = mol fraction of the nth substance listed
Settings: 312.5 K; 101 kPa; Liquid; Chromatography; x1 = 0
Entries and their activity coefficient
endpoint label: activity coefficient

CCCCCCCC [octane] + CCCC[n+]1ccccc1.O=S(=O)([N-]S(=O)(=O)C(F)(F)F)C(F)(F)F :: 32.2
Cc1ccccc1C [1,2-dimethylbenzene] + CCCC[n+]1ccccc1.O=S(=O)([N-]S(=O)(=O)C(F)(F)F)C(F)(F)F :: 2.25
Cc1ccc(C)cc1 [1,4-dimethylbenzene] + CCCC[n+]1ccccc1.O=S(=O)([N-]S(=O)(=O)C(F)(F)F)C(F)(F)F :: 2.48
Cc1cccc(C)c1 [1,3-dimethylbenzene] + CCCC[n+]1ccccc1.O=S(=O)([N-]S(=O)(=O)C(F)(F)F)C(F)(F)F :: 2.49

====

Assay: activity coefficient (dimensionless); of the first substance listed, at infinite dilution; xn = mol fraction of the nth substance listed
Conditions: 313.4 K; 101 kPa; Liquid; Chromatography; x1 = 0
endpoint label: activity coefficient

C#CCCCCCC [1-octyne] + CCCC[n+]1ccccc1.O=S(=O)([N-]S(=O)(=O)C(F)(F)F)C(F)(F)F :: 7.82
CCO [ethanol] + CCCC[n+]1ccccc1.O=S(=O)([N-]S(=O)(=O)C(F)(F)F)C(F)(F)F :: 2.26
C#CCCC [1-pentyne] + CCCC[n+]1ccccc1.O=S(=O)([N-]S(=O)(=O)C(F)(F)F)C(F)(F)F :: 2.4
CO [methanol] + CCCC[n+]1ccccc1.O=S(=O)([N-]S(=O)(=O)C(F)(F)F)C(F)(F)F :: 1.73

====

Entries and their activity coefficient
Test: activity coefficient (dimensionless); of the first substance listed, at infinite dilution; xn = mol fraction of the nth substance listed
Conditions: 343.1 K; 101 kPa; Liquid; Chromatography; x1 = 0
endpoint label: activity coefficient

Cc1cccc(C)c1 [1,3-dimethylbenzene] + CCCC[n+]1ccccc1.O=S(=O)([N-]S(=O)(=O)C(F)(F)F)C(F)(F)F :: 2.52
C#CCCCCCC [1-octyne] + CCCC[n+]1ccccc1.O=S(=O)([N-]S(=O)(=O)C(F)(F)F)C(F)(F)F :: 7.05
CCO [ethanol] + CCCC[n+]1ccccc1.O=S(=O)([N-]S(=O)(=O)C(F)(F)F)C(F)(F)F :: 1.61
CCCO [propan-1-ol] + CCCC[n+]1ccccc1.O=S(=O)([N-]S(=O)(=O)C(F)(F)F)C(F)(F)F :: 2.03
C#CCCCCC [1-heptyne] + CCCC[n+]1ccccc1.O=S(=O)([N-]S(=O)(=O)C(F)(F)F)C(F)(F)F :: 4.79
Cc1ccc(C)cc1 [1,4-dimethylbenzene] + CCCC[n+]1ccccc1.O=S(=O)([N-]S(=O)(=O)C(F)(F)F)C(F)(F)F :: 2.54

Ref: the NIST ThermoML archive (doi:10.1016/j.jct.2010.06.009)
